# Experimental Protocol: Pharmacokinetics of LN002 in rat plasma after single intravenous injection or oral gavage
# Format: in vivo, Sprague–Dawley (SD) rats
# Measurement Setup: both sexes, Sprague-Dawley, rat, plasma, po, 100 mg/kg, plasma, oral 100 mg/kg, rats, n = 6, mean ± SD; read-out: AUC0–24 h
Readout: AUC(0-t) (ng·h/mL)
Answers are plain numbers, in ng·h/mL.

Task: Entry N#C/C(=C\c1c[nH]nc1-c1ccccc1)c1nn(-c2ccccc2)c(N)c1C#N : reported AUC(0-t) = ?
Result: 2280

----------
# Experimental Protocol: Tissue distribution of LN002 after oral administration in rats
# Type: in vivo, Sprague–Dawley (SD) rats
# Measurement Setup: both sexes, Sprague-Dawley, rat; liver, oral 200 mg/kg, SD rats, n = 6, mean ± SD
Readout: Tmax (min)
Answers are plain numbers, in min.

Task: Entry N#C/C(=C\c1c[nH]nc1-c1ccccc1)c1nn(-c2ccccc2)c(N)c1C#N : reported Tmax = ?
Result: 40.2
